# experimental_system: HLA-B*58:01
# protocol_description: IEDB peptide-MHC binding, purified MHC/direct/fluorescence; filed as Kd, often an IC50 or EC50 that approximates it; bounds were set here for any values at or beyond the usual limits of such assays
# assay_setup: source organism: Pseudomonas aeruginosa
experimental_endpoint: Kd

[[record]]
monomer_sequence = "ALEPGFKDY"
experimental_endpoint = "Kd"
observed_value = "≥ 20 µM"


* * *

# experimental_system: HLA-A*26:01
# protocol_description: IEDB peptide-MHC binding, purified MHC/direct/fluorescence; filed as Kd, often an IC50 or EC50 that approximates it; bounds were set here for any values at or beyond the usual limits of such assays
# assay_setup: source organism: Mycobacterium tuberculosis variant bovis BCG str. Pasteur 1173P2
pKd: −log10 of the molar value.
experimental_endpoint: pKd

[[record]]
monomer_sequence = "FVARIDLGY"
observed_value = 7.70

